Reported LD50 at 72 h by item:
# Assay remarks: Toxicity in iv dosed Swiss albino mouse after 72 hrs
# Type: organism-based
# Setup conditions: in vivo
Readout kind: LD50 at 72 h

[[record]]
compound = "CCCN1CCCC[C@H]1C(=O)Nc1c(C)cccc1C [ROPIVACAINE]"
readout_kind = "LD50 at 72 h"
result = "14.1 mg/kg"

[[record]]
compound = "Cc1ccc(NC(=O)C2CCCN2C2CCCCC2)c(C)c1.Cl (mixture of isomers)"
readout_kind = "LD50 at 72 h"
result = "65 mg/kg"

[[record]]
compound = "Cc1ccccc1NC(=O)[C@@H]1CCCN1Cc1ccccc1.Cl"
readout_kind = "LD50 at 72 h"
result = "35.5 mg/kg"

[[record]]
compound = "Cc1cc(C)c(NC(=O)C2CCCN2C2CCCCC2)c(C)c1.Cl (centres undefined) [CYCLOMECAINE]"
readout_kind = "LD50 at 72 h"
result = "15 mg/kg"

[[record]]
compound = "CCCCCCN1CCCC1C(=O)Nc1ccccc1C.Cl (mixture of isomers)"
readout_kind = "LD50 at 72 h"
result = "35.5 mg/kg"

[[record]]
compound = "CCCCN1CCCC1C(=O)Nc1ccccc1I.Cl (mixture of isomers)"
readout_kind = "LD50 at 72 h"
result = "41 mg/kg"

[[record]]
compound = "CCCCN1CCCC1C(=O)Nc1ccccc1C(F)(F)F.Cl (mixture of isomers)"
readout_kind = "LD50 at 72 h"
result = "35.5 mg/kg"

[[record]]
compound = "CCCCN1CCCC1C(=O)Nc1ccc(Br)cc1Br.Cl (mixture of isomers)"
readout_kind = "LD50 at 72 h"
result = "239 mg/kg"

[[record]]
compound = "CCN1CCCC1C(=O)Nc1ccccc1C.Cl (mixture of isomers)"
readout_kind = "LD50 at 72 h"
result = "36.8 mg/kg"

[[record]]
compound = "CCCCN1CCCC1C(=O)Nc1ccccc1CC.Cl (mixture of isomers)"
readout_kind = "LD50 at 72 h"
result = "30 mg/kg"

[[record]]
compound = "CCCCN1CCCC1C(=O)Nc1ccccc1C.Cl (mixture of isomers)"
readout_kind = "LD50 at 72 h"
result = "16.3 mg/kg"

[[record]]
compound = "Cc1ccccc1NC(=O)[C@@H]1CCCN1C.Cl"
readout_kind = "LD50 at 72 h"
result = "32.5 mg/kg"

[[record]]
compound = "CCCCN1CCCC1C(=O)Nc1ccc(C)cc1C.Cl (mixture of isomers)"
readout_kind = "LD50 at 72 h"
result = "60 mg/kg"

[[record]]
compound = "Cl.O=C(Nc1ccccc1Cl)C1CCCN1C1CCCCC1 (mixture of isomers)"
readout_kind = "LD50 at 72 h"
result = "95 mg/kg"

[[record]]
compound = "CCCCCN1CCCC1C(=O)Nc1ccccc1C.Cl (mixture of isomers)"
readout_kind = "LD50 at 72 h"
result = "32.5 mg/kg"

[[record]]
compound = "Cc1ccccc1NC(=O)C1CCCN1C1CCCCC1.Cl (mixture of isomers)"
readout_kind = "LD50 at 72 h"
result = "12.9 mg/kg"

[[record]]
compound = "CCCCN1CCCC1C(=O)Nc1ccc(Cl)cc1Cl.Cl (mixture of isomers)"
readout_kind = "LD50 at 72 h"
result = "32.5 mg/kg"

[[record]]
compound = "CCCCN1CCCC1C(=O)Nc1c(C)cccc1C.Cl (mixture of isomers)"
readout_kind = "LD50 at 72 h"
result = "9.2 mg/kg"

[[record]]
compound = "CCCCN1CCCCC1C(=O)Nc1c(C)cccc1C (centres undefined) [BUPIVACAINE]"
readout_kind = "LD50 at 72 h"
result = "8.9 mg/kg"

